Answer each item with its documented apparent KD of MS2 coat protein.
# Test system: MS2 coat protein
# assayProcedure: apparent KD of MS2 coat protein; higher = weaker reporter binding
# measurementConditions: Eterna round: R107; input ligand: theophylline 20 uM
Quick reminder: number only, in nM, skip the unit.

Lookup: Endpoint output: apparent KD of MS2 coat protein of ACGAUAGGGCAUGAGGAUCACCCAUGUGAUACCAGCCUGGAAACAGGCCCUUGGCAGCAUUAAUACUCCAAUAACCUAUCGAAUA [TheoAX 17 #MicroSwitchBubble #AlternativeMS2] . Value?
Found: 184

Lookup: Try this sequence next: AAAAUAUAGACGGCCGCCACUAUAAUCAUGAGGAACAUGAGGAUCACCCAUGUAUGAGGAUCACCUAGGACCGGGUCAUAUAAAA [#24 Exclusion Tryptophan B]
Found: 31.3

Lookup: // query: ACAUGAGGAUCACCCAUGUAAGGUCUUGAUACCAGACGCGAAGUAGUCCCUUGGCAGCAAAUACGUGAGGGUCGCACAUGUGUAA [mcnmullin]
Found: 35.9

Lookup: Now try UAGUUGUAGUCGGCCGCCACUGUGAGCAUGGUUAACAUGAGGAUCACCCAUGUCCCGUACUAUAACAGGACCGGGACGUAGUUGC [#10 Same State - Tryptophan B] .
Found: 79.4

Lookup: // same read-out, input: UAUCGUCAGACGGCCGCCACUAGAACAUGAGGAUCACCCAUGUAGGCGGCCGAUUCCUCAUGAACUAGGACCGGGUCUGACGAAU [(Trp1)-(Ms2)-(T)'-(M)'-(Trp2)_Design12]
Found: 26

Lookup: // query: AUGCAUAGCGGAAGGAGCGCAAUAGAAUGACAUGAGGAUCACCCAUGUGUGUGAUGUGGGUUGCAGGUAGGUCGCCGAGUGGCAU [#11 Exclusion - Arginine B]
Found: 95.9

Source listed as the supplement of paper PMC9170038.
